Ref: patent US20140213531A1

SYSTEM_NAME: Trypsin, Iodination grade, from human pancreas (human, UniProt P07477 24-247)
METHOD: cell-based or functional assay
Assignment: determine reported % inhibition at 100 µM for the given binders.
Give bare numbers, in %.

Find the recorded % inhibition at 100 µM belonging to FCTKSDPPICS (HELM PEPTIDE1{F.C.T.K.S.D.P.P.I.C.S.[dI].P}$PEPTIDE1,PEPTIDE1,2:R3-10:R3|PEPTIDE1,PEPTIDE1,1:R1-13:R2$$$V2.0; SMILES CC[C@@H](C)[C@H]1NC(=O)[C@H](CO)NC(=O)[C@@H]2CSSC[C@H](NC(=O)[C@H](Cc3ccccc3)NC(=O)[C@@H]3CCCN3C1=O)C(=O)N[C@@H]([C@@H](C)O)C(=O)N[C@@H](CCCCN)C(=O)N[C@@H](CO)C(=O)N[C@@H](CC(=O)O)C(=O)N1CCC[C@H]1C(=O)N1CCC[C@H]1C(=O)N[C@@H]([C@@H](C)CC)C(=O)N2) [Example 73] and report it.
94

Others:
Recorded % inhibition at 100 µM for FCTKSDPPICN (HELM PEPTIDE1{F.C.T.K.S.D.P.P.I.C.N.[dP].P}$PEPTIDE1,PEPTIDE1,2:R3-10:R3|PEPTIDE1,PEPTIDE1,1:R1-13:R2$$$V2.0; SMILES CC[C@H](C)[C@@H]1NC(=O)[C@@H]2CCCN2C(=O)[C@@H]2CCCN2C(=O)[C@H](CC(=O)O)NC(=O)[C@H](CO)NC(=O)[C@H](CCCCN)NC(=O)[C@H]([C@@H](C)O)NC(=O)[C@@H]2CSSC[C@H](NC1=O)C(=O)N[C@@H](CC(N)=O)C(=O)N1CCC[C@@H]1C(=O)N1CCC[C@H]1C(=O)N[C@@H](Cc1ccccc1)C(=O)N2) [Example 3] , please?
92
